The origin of these recorded values is patent US6800653B2.

system: HCT-116 human colon carcinoma cells; test: Cytotoxicity (in vitro) by MTS assay; format: cell-based; settings: HCT-116, 72 h, read-out: HTC-116 assay IC50
Metric: IC50
Phrase the answer as number then unit, nothing more needed.

Completed entries (count: 3):
C/C(=C\c1csc(C)n1)[C@@H]1C[C@H]2C(CCCC(C)[C@H](O)[C@@H](C)C(=O)C(C)(C)[C@@H](O)CC(=O)O1)[N@@]2Cc1ccccc1 (relative stereo)
23 nM
C/C(=C\c1csc(C)n1)C1CC2[C@@H](CCC[C@H](C)[C@H](O)[C@@H](C)C(=O)C(C)(C)[C@@H](O)CC(=O)O1)[N@@]2C (relative stereo)
0.13 nM
C/C(=C\c1csc(C)n1)[C@@H]1C[C@@H]2NC2CCCC(C)[C@H](O)[C@@H](C)C(=O)C(C)(C)[C@@H](O)CC(=O)O1 (relative stereo)
2.7 nM

For the next question, use this molecule.
stdin: # input molecule: CC(=Cc1csc(C)n1)C1CC2OC2(C)CCCC(C)C(O)C(C)C(=O)C(C)(C)C(O)CC(=O)O1 (stereo not shown) [Epothilone B, reference compound] ; wanted: its IC50
stdout: 0.8 nM
